B1: TBX5 (parent)
chain: FHEVGTEMIITKAGRRMFPSYKVK

Variants of: B1
experiment: protein stability index of a GFP-peptide fusion (GPS, HEK-293T) (PSI 1-6); higher = more stable;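 note: lentivirally expressed fusions sorted by FACS into six bins by GFP to DsRed ratio, PSI derived from sequencing read proportions per bin multiplied by bin number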
experimental_setup: c terminus: a fixed tail appended
outcome_measure: protein stability index
Please respond with just the number, no unit label.

Below, 3 variants whose answers are already recorded.
1. FHEVGTEMIITKAGCRMFPSYKVK [R15C]    2.63
2. FHEVGTEMIITKAGRRMFPSYKVA [K24A]    1.99
3. FHEVGTEMIITKAPRRMFPSYKVK [G14P]    2.86

Q: Please supply the value of reported protein stability index for the item FHEVGTEMIITKAGRRMFLSYKVK [P19L]
Ans: 1.74

Q: Please supply the value of reported protein stability index for the item FHEVGTEMIITKAGKRMFPSYKVK [R15K]
Ans: 1.92

Q: Please supply the value of reported protein stability index for the item FHQVGTEMIITKAGRRMFPSYKVK [E3Q]
Ans: 1.8

Q: Please supply the value of reported protein stability index for the item FHEVGTEMIITKAGRRFFPSYKVK [M17F]
Ans: 2

Q: Please supply the value of reported protein stability index for the item FHEVGTEMIITKAGREMFPSYKVK [R16E]
Ans: 2.38

Q: Please supply the value of reported protein stability index for the item FHEVGTEMIITIAGRRMFPSYKVK [K12I]
Ans: 1.6

Q: Please supply the value of reported protein stability index for the item FHEVGQEMIITKAGRRMFPSYKVK [T6Q]
Ans: 2.2
